measured-on: recombinant human catalytic domain of MMP-13 (Homo sapiens, UniProt P45452)
Construct: catalytic domain of MMP-13 (165 amino acids, residues 104-268, 19 kDa)
test-name: In vitro fluorescence assay of MMP-13 activity
Type: biochemical
stated-conditions: Table 2; nM printed in one cell only
Collected IC50 values appear next to each entry.

Output IC50 of "CC(C)(Cc1ccc(F)cc1)NC(=O)[C@H](CCC(=O)O)NC(=O)c1ccc2c(c1)Cc1ccccc1-2"
> 100000 nM

Output IC50 of COc1cc(CNC(=O)[C@H](CCC(=O)O)NC(=O)c2ccc(-c3ccc(C)c(F)c3)cc2)cc(OC)c1OC [Example 17R]
6000 nM

Next:
Output IC50 of "CCCNC(=O)[C@H](CCC(=O)O)NC(=O)c1ccc2c(c1)Cc1ccccc1-2"
> 100000 nM

Output IC50 of "COc1cc(COc2ccc(-c3ccc(C(=O)N[C@@H](CCC(=O)O)C(=O)NCc4cc(OC)c(OC)c(OC)c4)cc3)cc2)cc(OC)c1"
~1600 nM

Output IC50 of COc1cccc(-c2ccc(C(=O)N[C@@H](CCC(=O)O)C(=O)NC(C)(C)Cc3ccccc3)cc2)c1 [Example 17I]
~100000 nM

Output IC50 of "O=C(O)CC[C@H](NC(=O)c1ccc(-c2ccccc2)cc1)C(=O)NC1c2ccccc2-c2ccccc21"
~20000 nM

Output IC50 of COc1cc(CNC(=O)C(CCC(=O)O)NC(=O)c2ccc(-c3ccc4c(c3)OCO4)cc2)cc(OC)c1OC (stereo not shown) [Example 17N]
11200 nM

----------
measured-on: recombinant human catalytic domain of MMP-13 (Homo sapiens, UniProt P45452)
Construct: catalytic domain of MMP-13 (165 amino acids, residues 104-268, 19 kDa)
test-name: In vitro fluorescence assay of MMP-13 activity
Type: biochemical
stated-conditions: Table 1; unit inferred
measure-name: IC50

Sample answers from the record:
Output IC50 of O=C(O)CC[C@H](NC(=O)c1ccc(-c2ccccc2)cc1)C(=O)NCc1cccc(-c2ccccn2)c1 [Example 10Q]
~50 µM

Output IC50 of "COc1cc(CNC(=O)[C@H](CCC(=O)O)NC(=O)c2ccc(-c3ccccc3)cc2)cc(OC)c1"
~22 µM

Output IC50 of "O=C(O)CC[C@H](NC(=O)c1ccc(-c2ccccc2)cc1)C(=O)NCc1cccc(I)c1"
17 µM

Output IC50 of "O=C(O)CC[C@H](NC(=O)c1ccc(-c2ccccc2)cc1)C(=O)NC1CCCC1"
~50 µM

Output IC50 of CC(C)(Cc1ccc(F)cc1)NC(=O)C(CCC(=O)O)NC(=O)c1ccc(-c2ccccc2)cc1 (racemic)
> 50 µM

Here is another molecule to look at.
Output IC50 of "CCCCCCNC(=O)[C@H](CCC(=O)O)NC(=O)c1ccc(-c2ccccc2)cc1"
~50 µM

----------
measured-on: purified recombinant human Aggrecanase-1 (rAgg1) (Homo sapiens, UniProt O75173)
test-name: In vitro fluorescence screen for Aggrecanase-1 inhibitors
Assay type: biochemical
stated-conditions: Table 2; read-out: Agg1 IC50
Collected log10 IC50 values appear next to each entry.
Use the decimal logarithm of IC50 (nM).

Sample answers from the record:
Output log10 IC50 of COc1cc(CNC(=O)[C@H](CCC(=O)O)NC(=O)c2ccc(-c3ccc(C(C)C)cc3)cc2)cc(OC)c1OC [Example 17AA]
3.54

Output log10 IC50 of CC(C)(Cc1ccccc1)NC(=O)[C@H](CCC(=O)O)NC(=O)c1ccc(-c2ccc(COc3cccc(C(C)(C)C)c3)cc2)cc1 [Example 15Y]
2.34

Output log10 IC50 of COc1cc(CNC(=O)[C@H](CCC(=O)O)NC(=O)c2ccc(-c3cccc(C(C)C)c3)cc2)cc(OC)c1OC [Example 17Z]
2.23

Output log10 IC50 of "CCCCN(C)C(=O)[C@H](CCC(=O)O)NC(=O)c1ccc(-c2ccccc2)cc1"
3.70

Here is another compound to look at.
Output log10 IC50 of CC(C)(Cc1ccccc1)NC(=O)[C@H](CCC(=O)O)NC(=O)c1ccc(-c2ccc(CO)cc2)cc1 [Example 17SS]
2.65

----------
Collected pIC50 values appear next to each entry.
measured-on: purified recombinant human Aggrecanase-1 (rAgg1) (Homo sapiens, UniProt O75173)
Sequence (O75173 213-837): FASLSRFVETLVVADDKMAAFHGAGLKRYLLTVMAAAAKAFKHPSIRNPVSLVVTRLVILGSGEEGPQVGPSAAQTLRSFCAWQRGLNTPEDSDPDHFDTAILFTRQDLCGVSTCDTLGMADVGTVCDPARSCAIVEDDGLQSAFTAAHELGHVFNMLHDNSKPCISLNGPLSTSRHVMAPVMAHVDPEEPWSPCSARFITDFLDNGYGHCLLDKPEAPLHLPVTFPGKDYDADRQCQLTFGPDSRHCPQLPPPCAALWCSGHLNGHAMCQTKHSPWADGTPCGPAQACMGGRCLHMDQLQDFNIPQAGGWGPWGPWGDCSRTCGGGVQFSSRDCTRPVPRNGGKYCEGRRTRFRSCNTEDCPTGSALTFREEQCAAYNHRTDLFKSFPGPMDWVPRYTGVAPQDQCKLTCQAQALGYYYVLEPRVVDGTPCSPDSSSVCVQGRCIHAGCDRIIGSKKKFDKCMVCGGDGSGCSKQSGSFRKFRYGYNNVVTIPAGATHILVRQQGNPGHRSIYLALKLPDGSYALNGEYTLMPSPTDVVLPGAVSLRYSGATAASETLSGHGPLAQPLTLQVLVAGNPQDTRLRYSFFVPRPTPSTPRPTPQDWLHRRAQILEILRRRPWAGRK
test-name: In vitro fluorescence screen for Aggrecanase-1 inhibitors
Assay type: biochemical
stated-conditions: Table 2; read-out: Agg1 IC50
// pIC50: -log10(molar conc.)

Answer briefly: pIC50 recorded on purified recombinant human Aggrecanase-1 (rAgg1) (Homo sapiens, UniProt O75173) for COc1ccc(CCN(C)C(=O)[C@H](CCC(=O)O)NC(=O)c2ccc(-c3ccccc3)cc2)cc1OC [Example 8GGGGGG]
5.38

Answer briefly: pIC50 recorded on purified recombinant human Aggrecanase-1 (rAgg1) (Homo sapiens, UniProt O75173) for COc1cc(CNC(=O)[C@H](CCC(=O)O)NC(=O)c2ccc(Br)cc2)cc(OC)c1OC [Example 18D]
5.36

Answer briefly: pIC50 recorded on purified recombinant human Aggrecanase-1 (rAgg1) (Homo sapiens, UniProt O75173) for CCc1cccc(OCc2ccc(-c3ccc(C(=O)N[C@@H](CCC(=O)O)C(=O)NC(C)(C)Cc4ccccc4)cc3)cc2)c1 [Example 15AA]
7.36

Answer briefly: pIC50 recorded on purified recombinant human Aggrecanase-1 (rAgg1) (Homo sapiens, UniProt O75173) for C[C@@H](NC(=O)[C@H](CCC(=O)O)NC(=O)c1ccc2c(c1)Cc1ccccc1-2)c1ccccc1 [Example 8VVVVV]
6.66

Answer briefly: pIC50 recorded on purified recombinant human Aggrecanase-1 (rAgg1) (Homo sapiens, UniProt O75173) for COc1cc(COc2ccc(-c3ccc(C(=O)N[C@@H](CCC(=O)O)C(=O)NCc4cc(OC)c(OC)c(OC)c4)cc3)cc2)cc(OC)c1 [Example 18]
7.31

Answer briefly: pIC50 recorded on purified recombinant human Aggrecanase-1 (rAgg1) (Homo sapiens, UniProt O75173) for CCOc1cccc(-c2ccc(C(=O)N[C@@H](CCC(=O)O)C(=O)NC(C)(C)Cc3ccccc3)cc2)c1 [Example 17MM]
7.34

Next:
Answer briefly: pIC50 recorded on purified recombinant human Aggrecanase-1 (rAgg1) (Homo sapiens, UniProt O75173) for CC(C)(Cc1ccccc1)NC(=O)[C@H](CCC(=O)O)NC(=O)c1ccc(-c2ccc(O)cc2)cc1 [Example 17LL]
7.06

Answer briefly: pIC50 recorded on purified recombinant human Aggrecanase-1 (rAgg1) (Homo sapiens, UniProt O75173) for O=C(O)CC[C@H](NC(=O)c1ccc2c(c1)C(=O)c1ccccc1-2)C(=O)NCCCCCCO [Example 8XXXXX]
6.61

Answer briefly: pIC50 recorded on purified recombinant human Aggrecanase-1 (rAgg1) (Homo sapiens, UniProt O75173) for O=C(O)CC[C@H](NC(=O)c1ccc(C#CC2(O)c3ccccc3-c3ccccc32)cc1)C(=O)NCc1ccccc1 [Example 12H]
5.92

----------
measured-on: purified recombinant human Aggrecanase-2 (Ag2t-Phe628-Strep) (Homo sapiens)
Construct: the form used is denoted as Ag2t-Phe628-Strep (MW=41,737)
Sequence (Q9UNA0 262-628): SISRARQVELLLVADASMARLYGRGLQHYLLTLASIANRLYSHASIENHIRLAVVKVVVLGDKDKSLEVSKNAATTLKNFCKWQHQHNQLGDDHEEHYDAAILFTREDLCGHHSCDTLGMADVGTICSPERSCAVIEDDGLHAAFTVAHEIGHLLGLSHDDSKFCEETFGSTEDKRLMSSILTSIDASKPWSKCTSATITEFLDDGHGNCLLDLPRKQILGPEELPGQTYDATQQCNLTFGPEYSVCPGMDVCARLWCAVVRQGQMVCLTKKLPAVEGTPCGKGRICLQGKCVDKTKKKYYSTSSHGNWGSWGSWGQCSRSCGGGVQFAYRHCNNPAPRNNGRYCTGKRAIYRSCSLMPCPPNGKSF
test-name: In vitro fluorescence screen for Aggrecanase-2 inhibitors
Format: biochemical
stated-conditions: Table 3; read-out: Agg 2 IC50
Collected IC50 values appear next to each entry.
State just the number; it will be interpreted in nM.

Sample answers from the record:
Output IC50 of "CC(C)(Cc1ccc(Cl)s1)NC(=O)[C@H](CCC(=O)O)NC(=O)c1ccc(-c2ccc(F)c(F)c2)cc1"
42

Output IC50 of COc1cccc(-c2cccc(COc3ccc(-c4ccc(C(=O)N[C@@H](CCC(=O)O)C(=O)NCc5ccccc5)cc4)cc3)c2)c1 [Example 15V]
700

Output IC50 of "CC(C)(Cc1ccc(Cl)cc1)NC(=O)[C@H](CCC(=O)O)NC(=O)c1ccc(-c2cc(F)cc(F)c2)cc1"
220

Output IC50 of "CC(C)(Cc1ccc(Cl)cc1)NC(=O)[C@H](CCC(=O)O)NC(=O)c1ccc(-c2ccccc2)nc1"
1700

Output IC50 of "CC(C)(Cc1ccc(F)cc1)NC(=O)[C@H](CCC(=O)O)NC(=O)c1ccc(-c2ccccc2)nc1"
1000

Here is another compound to look at.
Output IC50 of "CC(C)(Cc1ccccc1)NC(=O)[C@H](CCC(=O)O)NC(=O)c1ccc(-c2cc(F)cc(F)c2)cc1"
180
